Test system: johnsongrass (Sorghum halepense, SORHA)
test-protocol: Post-emerge herbicidal activity, greenhouse screen, SORHA
Format: in vivo
assay-conditions: 250 g ai/ha, rating 0-100 (0 no damage, 100 complete death), 14 days after application
reported-endpoint: Post-emerge Herbicidal Activity SORHA

In [3]: df
Out[3]:
                                smiles_data  reported_value
0  Cn1c(C(F)(F)F)cc(=O)n(-c2c(F)cc(Cl)c3nc(C(C)(C)C)oc23)c1=S              85
1  Cn1c(C(F)(F)F)cc(=O)n(-c2c(F)ccc3nc(C(C)(C)C)oc23)c1=S              75
2  Cn1c(C(F)(F)F)cc(=O)n(-c2c(F)cc(Cl)c3ncoc23)c1=S             100
3  Cn1c(C(F)(F)F)cc(=O)n(-c2ccc(Cl)c3nc(C(C)(C)C)oc23)c1=S              30
4  Cc1nc2c(Cl)cc(F)c(-n3c(=O)cc(C(F)(F)F)n(C)c3=S)c2o1             100
5  Cc1cc2c(-n3c(=O)cc(C(F)(F)F)n(C)c3=S)c(F)cc(Cl)c2o1             100
